Value source: patent US20180244611A1

- experimental target: F508delCFTR (Homo sapiens, UniProt P13569, DEL508-508)
- Construct: expressed in transfected cells; host or cells: CFBE41o- human lung-derived epithelial cells (CFBE41o-F508delCFTR-HRP), doxycycline-inducible
- Sequence (P13569 with tags, fused parts or gaps DEL508-508): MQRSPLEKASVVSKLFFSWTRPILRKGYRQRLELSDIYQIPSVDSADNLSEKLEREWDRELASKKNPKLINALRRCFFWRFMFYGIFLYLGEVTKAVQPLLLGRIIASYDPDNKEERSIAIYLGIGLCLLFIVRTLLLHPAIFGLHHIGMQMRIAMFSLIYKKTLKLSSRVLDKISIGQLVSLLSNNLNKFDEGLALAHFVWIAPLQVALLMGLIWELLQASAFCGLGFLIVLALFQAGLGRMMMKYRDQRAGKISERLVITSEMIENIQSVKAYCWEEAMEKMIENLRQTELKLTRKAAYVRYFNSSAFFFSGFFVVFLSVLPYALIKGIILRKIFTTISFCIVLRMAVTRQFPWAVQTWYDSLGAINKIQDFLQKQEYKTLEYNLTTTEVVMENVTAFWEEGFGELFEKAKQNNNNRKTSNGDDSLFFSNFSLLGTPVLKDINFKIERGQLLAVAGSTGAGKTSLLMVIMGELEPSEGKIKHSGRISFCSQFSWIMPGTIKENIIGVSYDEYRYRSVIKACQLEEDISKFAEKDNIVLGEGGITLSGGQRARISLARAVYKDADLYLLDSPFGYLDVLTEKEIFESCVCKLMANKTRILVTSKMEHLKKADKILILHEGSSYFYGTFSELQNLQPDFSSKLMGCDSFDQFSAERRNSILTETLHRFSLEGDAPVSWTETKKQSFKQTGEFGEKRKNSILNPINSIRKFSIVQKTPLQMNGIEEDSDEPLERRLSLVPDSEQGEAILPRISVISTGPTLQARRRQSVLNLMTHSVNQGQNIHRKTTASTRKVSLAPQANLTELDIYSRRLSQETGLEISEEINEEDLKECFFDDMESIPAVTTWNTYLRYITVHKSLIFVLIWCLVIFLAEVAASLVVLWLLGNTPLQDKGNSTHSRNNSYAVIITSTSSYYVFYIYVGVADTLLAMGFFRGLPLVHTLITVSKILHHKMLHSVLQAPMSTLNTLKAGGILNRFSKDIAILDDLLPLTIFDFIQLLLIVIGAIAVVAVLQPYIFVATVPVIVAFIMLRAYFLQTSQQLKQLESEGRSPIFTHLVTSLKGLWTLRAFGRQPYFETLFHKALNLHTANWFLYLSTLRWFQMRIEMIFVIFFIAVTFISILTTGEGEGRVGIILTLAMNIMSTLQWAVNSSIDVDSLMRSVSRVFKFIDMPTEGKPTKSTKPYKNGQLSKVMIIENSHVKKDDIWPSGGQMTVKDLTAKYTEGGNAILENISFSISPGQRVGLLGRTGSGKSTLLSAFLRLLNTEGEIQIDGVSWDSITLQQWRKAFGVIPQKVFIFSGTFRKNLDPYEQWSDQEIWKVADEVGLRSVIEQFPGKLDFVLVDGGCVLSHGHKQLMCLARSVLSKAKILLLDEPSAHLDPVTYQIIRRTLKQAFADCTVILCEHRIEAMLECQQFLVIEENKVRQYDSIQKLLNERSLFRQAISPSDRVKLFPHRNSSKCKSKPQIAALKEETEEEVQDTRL
- procedure details: Cell Surface Expression-Horse Radish Peroxidase (CSE-HRP) assay, test compound with co-corrector;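 as to Maximum % activity (with co-corrector): percent of 2 µM positive control corrector over DMSO; co-corrector is that same compound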
- Type: cell-based
- conditions: maximum at any tested concentration, normalized to positive control, with 2 μM co-corrector
experimental endpoint: Maximum % activity (with co-corrector)

Sample records with Maximum % activity (with co-corrector):
COc1cccc2c1CCC2C(=O)NS(=O)(=O)c1cccc(C#N)c1 (stereo not drawn): + (<150)
CC1(C(=O)NS(=O)(=O)c2ccccc2)CCc2c(Cl)cccc21 (stereo not drawn): +++ (≥350)
COc1cccc2c1CCC2C(=O)NS(=O)(=O)c1nc2c(c(=O)n(C)c(=O)n2C)n1Cc1ccc(Cl)cc1 (stereo not drawn): + (<150)
COCCS(=O)(=O)NC(=O)C1CCc2c(OC)cccc21 (stereo not drawn): + (<150)
CCC1(C(=O)NS(=O)(=O)c2cccc(Cl)c2F)CCc2c(Cl)cccc21 (stereo not drawn): ++ (≥150 and <350)

Which Maximum % activity (with co-corrector) reading was recorded for the molecule CCC1(C(=O)NS(=O)(=O)c2ccccc2OCCOC)CCc2c(Cl)cccc21 (stereo not drawn) ?
++ (≥150 and <350)

Which Maximum % activity (with co-corrector) reading was recorded for the molecule COc1cccc2c1CC(C(=O)NS(=O)(=O)c1ccccc1C)C2 (stereo not drawn) ?
++ (≥150 and <350)

Which Maximum % activity (with co-corrector) reading was recorded for the molecule O=C(NS(=O)(=O)c1cccc2ccccc12)C1(CC2CCOC2)CCc2c(Cl)cccc21 (stereo not drawn) ?
+++ (≥350)

Which Maximum % activity (with co-corrector) reading was recorded for the molecule COc1ccc(C2CCC2)c2c1[C@@H](C(=O)NS(=O)(=O)c1cccc3ncccc13)C2 (single isomer, unassigned) ?
+++ (≥350)

Which Maximum % activity (with co-corrector) reading was recorded for the molecule CCC1(C(=O)NS(=O)(=O)c2ccccc2Oc2ccccc2)CCc2c(Cl)cccc21 (stereo not drawn) ?
++ (≥150 and <350)

Which Maximum % activity (with co-corrector) reading was recorded for the molecule COc1cccc2c1CCC2C(=O)NS(=O)(=O)c1ccc(F)cc1F (stereo not drawn) ?
+ (<150)

* * *

- experimental target: F508delCFTR (Homo sapiens, UniProt P13569, DEL508-508)
- Construct: expressed in transfected cells; host or cells: CFBE41o- human lung-derived epithelial cells (CFBE41o-F508delCFTR-HRP), doxycycline-inducible
- procedure details: Cell Surface Expression-Horse Radish Peroxidase (CSE-HRP) assay, test compound without co-corrector;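 also: percent of on-plate 2 µM positive control corrector response over DMSO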
- Format: cell-based
- conditions: maximum at any tested concentration, normalized to positive control, without co-corrector
experimental endpoint: Emax

COc1ccc2c(c1OC)CCCC2C(=O)NS(=O)(=O)c1ccccc1C (centres unmarked): < 50%
COc1cccc2c1CCC2C(=O)NS(=O)(=O)c1cccc2ccccc12 (centres unmarked): ≥ 150%
COc1cccc2c1CCC2C(=O)NS(=O)(=O)c1ccc(C)cn1 (centres unmarked): < 50%

Which Emax reading was recorded for the compound Cc1ccccc1S(=O)(=O)NC(=O)C1CCc2c(-c3ccc(N4CCCCC4)nc3)cccc21 (centres unmarked) ?
50 to 150%

Which Emax reading was recorded for the compound COc1ccc(C2=CCOCC2)c2c1C(C(=O)NS(=O)(=O)c1cccc3ccccc13)CCC2 (centres unmarked) ?
≥ 150%

Which Emax reading was recorded for the compound C[C@@]1(C(=O)NS(=O)(=O)c2cccc3ccccc23)CCc2cccc(Cl)c21 ?
≥ 150%

Which Emax reading was recorded for the compound COc1ccc(Br)c2c1C(C(=O)NS(=O)(=O)c1cccc3nccn13)CC2 (centres unmarked) ?
≥ 150%

Which Emax reading was recorded for the compound COc1ccc(C2CCC2)c2c1C(C(=O)NS(=O)(=O)c1cccn3nccc13)C2 (centres unmarked) ?
≥ 150%

Which Emax reading was recorded for the compound CCC1(C(=O)NS(=O)(=O)c2cccc3c2ccn3C)CCc2c(Cl)cccc21 (centres unmarked) ?
≥ 150%

Which Emax reading was recorded for the compound COc1ccc(Br)c2c1[C@H](C(=O)NS(=O)(=O)c1cccc3ncccc13)CCC2 (single isomer, unassigned) ?
≥ 150%

Which Emax reading was recorded for the compound COCCCS(=O)(=O)NC(=O)C1CCc2c(OC)cccc21 (centres unmarked) ?
< 50%

Which Emax reading was recorded for the compound CCC1(C(=O)NS(=O)(=O)c2cccc(F)c2C)CCc2c(Cl)cccc21 (centres unmarked) ?
< 50%

Which Emax reading was recorded for the compound COc1cccc2c1CCC2C(=O)NS(=O)(=O)c1c(C)noc1C (centres unmarked) ?
< 50%

Which Emax reading was recorded for the compound COc1ccc(OC)c2c1CC[C@H]2C(=O)NS(=O)(=O)c1cccc2ccccc12 ?
≥ 150%

* * *

- experimental target: F508delCFTR (Homo sapiens, UniProt P13569, DEL508-508)
- Construct: expressed in transfected cells; host or cells: CFBE41o- human lung-derived epithelial cells (CFBE41o-F508delCFTR-HRP), doxycycline-inducible
- procedure details: Cell Surface Expression-Horse Radish Peroxidase (CSE-HRP) assay, test compound without co-corrector;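 also: percent of on-plate 2 µM positive control corrector response over DMSO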
- Format: cell-based
- conditions: maximum at any tested concentration, normalized to on-plate positive control, without co-corrector
Documented Emax across a set of compounds

CCC1(C(=O)NS(=O)(=O)c2ccccc2C(F)(F)F)CCc2c(Cl)cccc21 (stereo not drawn) [III-122]: < 50%

Which Emax reading was recorded for the compound CCC1(C(=O)NS(=O)(=O)c2ccccc2C#N)CCc2c(Cl)cccc21 (stereo not drawn) [III-120] ?
< 50%

Which Emax reading was recorded for the compound CCC1(C(=O)NS(=O)(=O)c2c(C)cccc2C(F)(F)F)CCc2c(Cl)cccc21 (stereo not drawn) [III-126] ?
< 50%

* * *

- experimental target: F508delCFTR (Homo sapiens, UniProt P13569, DEL508-508)
- Construct: expressed in transfected cells; host or cells: CFBE41o- human lung-derived epithelial cells (CFBE41o-F508delCFTR-HRP), doxycycline-inducible
- procedure details: Cell Surface Expression-Horse Radish Peroxidase (CSE-HRP) assay, test compound with co-corrector;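 as to Maximum % activity (with co-corrector): percent of 2 µM positive control corrector over DMSO; co-corrector is that same compound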
- Assay type: cell-based
- conditions: maximum at any tested concentration, normalized to positive control, with 2 μM co-corrector
experimental endpoint: Maximum % activity (with co-corrector)

COc1ccc(Br)c2c1[C@H](C(=O)NS(=O)(=O)c1cccc3ccccc13)CC2: +++ (≥350)
COc1cccc2c1CCC2C(=O)NS(=O)(=O)c1nnc(NC(C)=O)s1 (stereo not drawn): + (<150)
COc1ccc(C2CCC2)c2c1C(C(=O)NS(=O)(=O)c1cccc3ccccc13)C2 (stereo not drawn): +++ (≥350)
COc1cccc2c1CCC2C(=O)NS(=O)(=O)C1CCOCC1 (stereo not drawn): + (<150)
COc1cccc2c1CCC2C(=O)NS(=O)(=O)c1ccc(NCCC(C)(C)O)c([N+](=O)[O-])c1 (stereo not drawn): + (<150)

Which Maximum % activity (with co-corrector) reading was recorded for the compound CCC1(C(=O)NS(=O)(=O)c2cccc3cccc(O)c23)CCc2c(Cl)cccc21 (stereo not drawn) ?
+++ (≥350)

Which Maximum % activity (with co-corrector) reading was recorded for the compound Cc1ccccc1S(=O)(=O)NC(=O)C1CCc2c(OC(C)C)cccc21 (stereo not drawn) ?
++ (≥150 and <350)

* * *

- experimental target: F508delCFTR (Homo sapiens, UniProt P13569, DEL508-508)
- Construct: expressed in transfected cells; host or cells: CFBE41o- human lung-derived epithelial cells (CFBE41o-F508delCFTR-HRP), doxycycline-inducible
- procedure details: Cell Surface Expression-Horse Radish Peroxidase (CSE-HRP) assay, test compound with co-corrector
- Assay type: cell-based
- conditions: with 2 μM co-corrector
pEC50: −log10 of the molar value.
experimental endpoint: pEC50

Sample records with pEC50:
CCC1(C(=O)NS(=O)(=O)c2cccc3ccccc23)CCc2c(Br)ccc(OC)c21 (stereo not shown): > 5.52
COc1cccc2c1CCC2C(=O)NS(=O)(=O)c1c(C)nn(CCCl)c1C (stereo not shown): ≤ 5.00
Cc1ccccc1S(=O)(=O)NC(=O)C1CCc2c(-c3ccc(N(C)C)nc3)cccc21 (stereo not shown): ≤ 5.00

Consider the record given below.
Look up pEC50 with F508delCFTR (Homo sapiens, UniProt P13569, DEL508-508) for this compound: COc1cccc2c1CCC2C(=O)NS(=O)(=O)c1ccc(NC(=O)CC(C)=O)cc1 (stereo not shown)
≤ 5.00

* * *

- experimental target: F508delCFTR (Homo sapiens, UniProt P13569, DEL508-508)
- Construct: expressed in transfected cells; host or cells: CFBE41o- human lung-derived epithelial cells (CFBE41o-F508delCFTR-HRP), doxycycline-inducible
- procedure details: Cell Surface Expression-Horse Radish Peroxidase (CSE-HRP) assay, test compound with co-corrector
- Assay type: cell-based
- conditions: with 2 μM co-corrector
pEC50: −log10 of the molar value.
experimental endpoint: pEC50

COc1ccc(CC(C)C)c2c1C(C(=O)NS(=O)(=O)c1cccc3ncccc13)CC2 (centres unmarked): > 5.52
COc1cccc2c1CCC2C(=O)NS(=O)(=O)c1ccc2ccccc2c1 (centres unmarked): ≤ 5.00
COc1ccc2c(c1)CC[C@@]2(C)C(=O)NS(=O)(=O)c1cccc2ccccc12: 5.00 to 5.52
Cc1ccccc1S(=O)(=O)NC(=O)C1(C)CCc2cccc(Cl)c21 (centres unmarked): 5.00 to 5.52
COc1ccc(Br)c2c1[C@@H](C(=O)NS(=O)(=O)c1cccc3ncccc13)CCC2 (single isomer, unassigned): > 5.52
CCC1(C(=O)NS(=O)(=O)c2cc(C)ccc2C)CCc2c(Cl)cccc21 (centres unmarked): ≤ 5.00
CCN1CCC[C@H]1CNC(=O)c1cc(S(=O)(=O)NC(=O)C2CCc3c(OC)cccc32)ccc1OC (some centres unmarked): ≤ 5.00

Consider the record given below.
Which pEC50 reading was recorded for the molecule COc1ccc(C2CCC2)c2c1C(C(=O)NS(=O)(=O)c1cccc3ncn(C)c13)CC2 (centres unmarked) ?
> 5.52
